# experimental.details: 14-day daily oral repeated-dose DRF study in cynomolgus monkeys (mesylate salt)
# Type: in vivo
# condition.parameters: both sexes, cynomolgus monkey, plasma, po, 8 mg/kg, 8 mg/kg (Gr. 4), Day 1; read-out: T1/2 (converted)
test.readout: half-life (h)

INSERT INTO assay_data (molecule, test_readout, units_text, recorded_number) VALUES
  ('CC(C)C[C@@H]1NCCN([C@@H](CC(C)C)C(=O)N2CCC3(C[C@@H]2C)OCC(CN2CCCC2)CO3)C1=O (stereo partly shown) [Compound 1]', 'half-life', 'h', 5.4);

---

# experimental.details: 5-day daily oral repeated-dose pilot study in cynomolgus monkeys (mesylate salt)
# Format: in vivo
# condition.parameters: both sexes, cynomolgus monkey, serum, po, 8 mg/kg/day, Day 1; read-out: Peak serum levels (Cmax)
test.readout: Cmax (ng/mL)

INSERT INTO results (compound, test_readout, recorded_number) VALUES
  ('CC(C)C[C@@H]1NCCN([C@@H](CC(C)C)C(=O)N2CCC3(C[C@@H]2C)OCC(CN2CCCC2)CO3)C1=O (stereo partly shown)', 'Cmax', 45);

---

# experimental.details: 28-day once weekly oral repeated-dose DRF TK study in Beagle dogs (mesylate salt), plasma
# Format: in vivo
# condition.parameters: both sexes, Beagle, dog, plasma, po, 10 mg/kg, 10 mg/kg weekly, Day 22
test.readout: Cmax (ng/mL)

INSERT INTO measurements (compound, test_readout, recorded_number) VALUES
  ('CC(C)C[C@@H]1NCCN([C@@H](CC(C)C)C(=O)N2CCC3(C[C@@H]2C)OCC(CN2CCCC2)CO3)C1=O (stereo partly shown)', 'Cmax', 360);

---

# experimental.details: 14-day daily oral repeated-dose exploratory study in CD-1 mice (mesylate salt)
# Format: in vivo
# condition.parameters: female, CD-1, mouse, in vivo, po, 15 mg/kg, F, Day 1
test.readout: Cmax

INSERT INTO results (compound, result) VALUES
  ('CC(C)C[C@@H]1NCCN([C@@H](CC(C)C)C(=O)N2CCC3(C[C@@H]2C)OCC(CN2CCCC2)CO3)C1=O (stereo partly shown)', '140 ng/mL');

---

# experimental.details: 28-day once weekly oral repeated-dose DRF study in CD-1 mice (mesylate salt), plasma
# Assay type: in vivo
# condition.parameters: male, CD-1, mouse, plasma, po, 600 mg/kg, 600 mg/kg/week, 2nd dose (Week 2)
test.readout: Cmax

INSERT INTO measurements (molecule, test_readout, result) VALUES
  ('CC(C)C[C@@H]1NCCN([C@@H](CC(C)C)C(=O)N2CCC3(C[C@@H]2C)OCC(CN2CCCC2)CO3)C1=O (stereo partly shown)', 'Cmax', '13.4 µg/mL');

---

# experimental.details: Single dose intravenous and oral PK in Beagle dogs (citrate salt)
# Assay type: in vivo
# Set-up: unit not given here
# condition.parameters: both sexes, beagle, dog, whole blood; IV 4 mg/kg
test.readout: AUC(0-t)

INSERT INTO assay_data (compound, test_readout, result) VALUES
  ('CC(C)C[C@@H]1NCCN([C@@H](CC(C)C)C(=O)N2CCC3(C[C@@H]2C)OCC(CN2CCCC2)CO3)C1=O (stereo partly shown)', 'AUC(0-t)', 1.29);

---

# experimental.details: 5-day daily oral repeated-dose pilot study in Beagle dogs (mesylate salt)
# Type: in vivo
# condition.parameters: both sexes, Beagle, dog, plasma, po, 2 mg/kg, Day 5
test.readout: Cmax (ng/mL)

INSERT INTO assay_data (compound, recorded_number) VALUES
  ('CC(C)C[C@@H]1NCCN([C@@H](CC(C)C)C(=O)N2CCC3(C[C@@H]2C)OCC(CN2CCCC2)CO3)C1=O (stereo partly shown) [Compound 1]', 32.3);

Where do the numbers come from? From patent US12611406B2.
